- System: Cholinesterase (Equus caballus) (UniProt P81908)
- Sequence (P81908 whole entry): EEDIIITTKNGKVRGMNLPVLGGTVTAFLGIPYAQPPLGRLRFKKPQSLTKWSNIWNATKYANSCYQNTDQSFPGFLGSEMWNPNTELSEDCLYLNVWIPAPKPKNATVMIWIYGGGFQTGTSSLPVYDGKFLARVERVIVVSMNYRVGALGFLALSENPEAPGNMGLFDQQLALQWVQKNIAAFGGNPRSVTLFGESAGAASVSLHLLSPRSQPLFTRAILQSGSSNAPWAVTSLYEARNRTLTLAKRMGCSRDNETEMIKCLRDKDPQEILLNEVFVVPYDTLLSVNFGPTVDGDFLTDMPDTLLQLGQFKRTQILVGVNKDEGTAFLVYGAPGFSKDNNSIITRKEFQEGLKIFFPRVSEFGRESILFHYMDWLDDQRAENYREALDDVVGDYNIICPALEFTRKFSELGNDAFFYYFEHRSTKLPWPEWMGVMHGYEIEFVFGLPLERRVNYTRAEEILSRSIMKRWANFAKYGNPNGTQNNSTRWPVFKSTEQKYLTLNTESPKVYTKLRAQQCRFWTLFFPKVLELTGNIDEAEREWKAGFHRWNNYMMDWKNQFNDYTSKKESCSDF
- Test name: Inhibition of equine serum BChE preincubated for 15 mins at 10 uM followed by addition of S-butyrylthiocholine iodide as substrate measured after 30 mins by Ellman's microplate assay
Activity calls are given as the source filed them. The rule behind the calls is not given here.
Parameter call: string, one of Yes for active, No for inactive

# Entry smiles, Class name
data = [
    ("O=C(C1=C(O)/C(=C/c2ccc(Br)c(Br)c2)CCC1)c1ccccc1", "No"),
    ("O=C(C1=C(O)/C(=C/c2ccc(Cl)cc2)CCC1)c1ccccc1", "No"),
    ("O=C(C1=C(O)/C(=C/c2cccc3ccccc23)CCC1)c1ccccc1", "No"),
    ("Cc1ccc(/C=C2\\CCCC(C(=O)c3ccccc3)=C2O)cc1", "No"),
    ("COc1cc(/C=C2\\CCCC(C(=O)c3ccccc3)=C2O)cc(OC)c1OC", "No"),
    ("O=C(C1=C(O)/C(=C/c2ccc(Cc3ccccc3)cc2)CCC1)c1ccccc1", "No"),
    ("COc1ccc(/C=C2\\CCCC(C(=O)c3ccccc3)=C2O)cc1", "No"),
    ("O=C(C1=C(O)/C(=C/c2ccc(Cl)c(Cl)c2)CCC1)c1ccccc1", "No"),
]

Inquiry: Hi team, can someone confirm the assay call for `O=C(C1=C(O)/C(=C/c2ccc(O)c(O)c2)CCC1)c1ccccc1` ?
Reply text: Yes

Inquiry: Also check `COc1ccc(/C=C2\CCCC(C(=O)c3ccccc3)=C2O)cc1OC`
Reply text: No

Inquiry: Also check `O=C(C1=C(O)/C(=C/c2cccc(F)c2)CCC1)c1ccccc1`
Reply text: No

Inquiry: Also check `O=C(C1=C(O)/C(=C/c2ccc(F)cc2)CCC1)c1ccccc1`
Reply text: No

Inquiry: Also check `O=C(C1=C(O)/C(=C/c2cccc(O)c2)CCC1)c1ccccc1`
Reply text: No

Inquiry: Also check `O=C(C1=C(O)/C(=C/c2cccc(Cl)c2)CCC1)c1ccccc1`
Reply text: No

Inquiry: Also check `O=C(C1=C(O)/C(=C/c2cccc(OCCN3CCCCC3)c2)CCC1)c1ccccc1`
Reply text: Yes

Inquiry: Also check `O=C(C1=C(O)/C(=C/c2ccccc2)CCC1)c1ccccc1`
Reply text: No

Inquiry: Also check `COc1ccc(OC)c(/C=C2\CCCC(C(=O)c3ccccc3)=C2O)c1`
Reply text: No

----------
- System: Acetylcholinesterase (Electrophorus electricus)
- Sequence (O42275 whole entry): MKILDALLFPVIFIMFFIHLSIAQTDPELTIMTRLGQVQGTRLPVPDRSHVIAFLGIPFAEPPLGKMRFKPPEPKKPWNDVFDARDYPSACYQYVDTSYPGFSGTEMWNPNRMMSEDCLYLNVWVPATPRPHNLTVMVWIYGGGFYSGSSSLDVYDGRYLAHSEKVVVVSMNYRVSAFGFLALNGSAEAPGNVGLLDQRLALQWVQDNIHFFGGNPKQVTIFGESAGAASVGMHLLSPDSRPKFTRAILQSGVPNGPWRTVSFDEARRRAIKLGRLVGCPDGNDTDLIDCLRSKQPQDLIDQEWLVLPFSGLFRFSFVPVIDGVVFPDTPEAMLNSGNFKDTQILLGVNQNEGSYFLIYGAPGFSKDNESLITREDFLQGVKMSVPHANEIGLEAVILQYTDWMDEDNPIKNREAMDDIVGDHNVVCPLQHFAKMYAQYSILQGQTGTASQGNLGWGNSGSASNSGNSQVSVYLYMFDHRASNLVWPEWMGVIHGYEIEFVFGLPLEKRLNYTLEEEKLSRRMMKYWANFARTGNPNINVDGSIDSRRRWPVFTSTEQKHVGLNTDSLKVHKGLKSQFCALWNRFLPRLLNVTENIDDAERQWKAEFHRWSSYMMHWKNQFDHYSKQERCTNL
Note to self: class = bucket of IC50, per lower bin = under 7 µM, middle bin = from 7 µM up to 9 µM, upper bin = 9 µM and over

// known answers, use as guide
# Entry smiles, Class name
measured = [
    ("O=C(C1=C(O)/C(=C/c2ccc(Cl)c(Cl)c2)CCC1)c1ccccc1", "upper bin"),
    ("O=C(C1=C(O)/C(=C/c2ccc(OCCN3CCCCC3)cc2)CCC1)c1ccccc1", "lower bin"),
    ("O=C(C1=C(O)/C(=C/c2cccc3ccccc23)CCC1)c1ccccc1", "middle bin"),
    ("O=C(C1=C(O)/C(=C/c2ccc3ccccc3c2)CCC1)c1ccccc1", "middle bin"),
    ("O=C(C1=C(O)/C(=C/c2ccc(F)cc2)CCC1)c1ccccc1", "lower bin"),
]

Inquiry: Lab log: `O=C(C1=C(O)/C(=C/c2ccccc2F)CCC1)c1ccccc1` — assign IC50 category
Reply text: lower bin

Inquiry: Also check `O=C(C1=C(O)/C(=C/c2cccc(Cl)c2Cl)CCC1)c1ccccc1`
Reply text: lower bin

Inquiry: Also check `O=C(C1=C(O)/C(=C/c2ccc(Br)cc2)CCC1)c1ccccc1`
Reply text: middle bin

Inquiry: Also check `O=C(C1=C(O)/C(=C/c2cccc(OCCN3CCCCC3)c2)CCC1)c1ccccc1`
Reply text: lower bin

Inquiry: Also check `O=C(C1=C(O)/C(=C/c2ccc(F)c(F)c2)CCC1)c1ccccc1`
Reply text: middle bin

Inquiry: Also check `Cc1ccc(/C=C2\CCCC(C(=O)c3ccccc3)=C2O)s1`
Reply text: lower bin

Inquiry: Also check `O=C(C1=C(O)/C(=C/c2cccc(F)c2)CCC1)c1ccccc1`
Reply text: upper bin

----------
- System: Cholinesterase (Equus caballus)
- Test name: Inhibition of equine serum BChE preincubated for 15 mins at 10 uM followed by addition of S-butyrylthiocholine iodide as substrate measured after 30 mins by Ellman's microplate assay
Activity calls are given as the source filed them. The calls are words filed in the database; no cut-off is given here.
Parameter call: string, one of active, inactive

# Entry smiles, Class name
data = [
    ("COc1cccc(/C=C2\\CCCC(C(=O)c3ccccc3)=C2O)c1", "inactive"),
    ("O=C(C1=C(O)/C(=C/c2ccc(OCCN3CCCCC3)cc2)CCC1)c1ccccc1", "active"),
    ("COc1cccc(/C=C2\\CCCC(C(=O)c3ccccc3)=C2O)c1OC", "inactive"),
]

Inquiry: Hi team, can someone confirm the assay call for `O=C(C1=C(O)/C(=C/c2ccc(Br)cc2)CCC1)c1ccccc1` ?
Reply text: inactive

Inquiry: Also check `O=C(C1=C(O)/C(=C/c2cccc(Cl)c2Cl)CCC1)c1ccccc1`
Reply text: inactive

----------
- System: Cholinesterase (Equus caballus) (UniProt P81908)
- Test name: Inhibition of equine serum BChE preincubated for 15 mins at 10 uM followed by addition of S-butyrylthiocholine iodide as substrate measured after 30 mins by Ellman's microplate assay
Activity calls are given as the source filed them. No cut-off for these calls is given here.
Measured endpoint: inhibition

# Entry smiles, System, Measured endpoint, Result
measured = [
    ("O=C(C1=C(O)/C(=C/c2ccccc2F)CCC1)c1ccccc1", "Cholinesterase (Equus caballus) (UniProt P81908)", "inhibition", "inactive"),
    ("O=C(C1=C(O)/C(=C/c2cccs2)CCC1)c1ccccc1", "Cholinesterase (Equus caballus) (UniProt P81908)", "inhibition", "inactive"),
]
